- measured-target: PIK3CA (human)
- assay-comment: Inhibition of PIK3CA Kinase Activity
pIC50: −log10 of the molar value.
quantity-kind: pIC50

> print(dat)
                                    molecule  measured.target  op  value.measured
 1  C[C@]12C(=C(O)C(=O)c3c1ccc1c3CCC1=O)/C(=C/NCC(=O)O)C(=O)C[C@H]2OC(=O)CCC(=O)O   PIK3CA (human)   =            7.36
 2  O=C1C(=Cc2c[nH]c3ccc(Br)cc23)Oc2cc(O)cc(O)c21   PIK3CA (human)   =            6.37
 3  COc1ccc2c(c1)c(C=C1Oc3cc(O)cc(O)c3C1=O)c(C)n2CCCN1CCN(CCO)CC1   PIK3CA (human)   =            8.15
 4  C=CCN(/C=C1/C(=O)O[C@H](COC)[C@@]2(C)C1=C(O)C(=O)C1=C2[C@H](OC(C)=O)C[C@]2(C)C(=O)CC[C@H]12)CC=C   PIK3CA (human)   =            7.41
 5  CNC(=O)Nc1ccc(-c2nc(N3CC4CCC(C3)O4)c3cnn([C@H]4CC[C@H](OC)CC4)c3n2)cc1   PIK3CA (human)   =            5.93
 6  CC(C)(C)OC(=O)n1ccc2cc(CNc3cccc(Oc4cc(=O)[nH]c5ccccc45)c3)ccc21   PIK3CA (human)   =            4.93
 7  COc1ccc2c(c1)c(C=C1Oc3cc(O)cc(O)c3C1=O)c(C)n2CCCN(C)C   PIK3CA (human)   =            8.30
 8  COCCn1c(Cc2nc(N3CCOCC3)cc(=O)[nH]2)nc2ccccc21   PIK3CA (human)   <            5.00
 9  N[C@H]1CCC[C@@H](CC(=O)Nc2cccc(-c3nc(-c4cccc(CO)c4)cc(N4CCOCC4)n3)c2)C1   PIK3CA (human)   =            6.15
10  CNC(=O)Nc1ccc(-c2nc(N3CC4CCC(C3)O4)c3cnn([C@H]4CC[C@@H](O)CC4)c3n2)cc1   PIK3CA (human)   =            6.64
11       Oc1cccc(-c2nc(N3CCOCC3)c3sccc3n2)c1   PIK3CA (human)   =            8.70
12  COC[C@H]1OC(=O)c2coc3c2[C@@]1(C)C1=C(C3=O)[C@@H]2CCC(=O)[C@@]2(C)C[C@H]1C(=O)OCc1cc(=O)oc2cc(N(C)C)ccc12   PIK3CA (human)   =            8.00
13  CC(C)(C)CNc1ncccc1CNc1cccc(Oc2cc(=O)[nH]c3ccccc23)c1   PIK3CA (human)   =            5.00
14  COc1ccccc1C1C2=C(CC(C)(C)CC2=O)Nc2c1c(C(C)(C)C)nn2-c1ccc(Cl)c(Cl)c1 (stereo not drawn)   PIK3CA (human)   =            5.15
15  CC(=O)c1c[nH]c2ncc(-c3cnc(N)c(S(=O)(=O)N4CCOCC4)c3)cc12   PIK3CA (human)   =            6.14
16  CCNC(=O)Nc1ccc2ncc(-c3cc(Cl)c(O)c(Cl)c3)nc2n1   PIK3CA (human)   =            5.42
17    CCNC(=O)Nc1ccc2ncc(Nc3ccc(Cl)cc3)nc2n1   PIK3CA (human)   =            6.83
